Each record here notes measured fluorescence ratio (interference).
# experimental-details: compounds altering Cy5-DNA-NS3h complex signal – biochemical, LOPAC1280, artefact control for HCV NS3 helicase inhibitor project (AID 687037)
# experimental-conditions: Cy5-DNA-NS3h complex fluorescence interference counterscreen
measurement-name: fluorescence ratio (interference)

molecule	measurement-name	recorded-measurement
NC(Cc1cccc(-c2ccccc2CP(=O)(O)O)c1)C(=O)O (stereo not given)	fluorescence ratio (interference)	1
NCCS(=O)O	fluorescence ratio (interference)	1
Nc1ccc(-c2ccc3ccccc3n2)cc1	fluorescence ratio (interference)	1
Nc1ncnc2c1nc(Sc1ccc(Cl)cc1)n2C1OC2COP(=O)(O)O[C@@H]2[C@@H]1O (stereo not given in full)	fluorescence ratio (interference)	0.9
CC(C)c1cccc(C(C)C)c1N1C(=O)c2ccc(O)cc2C1=O	fluorescence ratio (interference)	0.9
OCC1O[C@H](O)C(Cl)C(O)C1O (stereo not given in full)	fluorescence ratio (interference)	1
Nc1cc(Cl)c(NC2=NCCN2)c(Cl)c1	fluorescence ratio (interference)	0.9
N[C@@H](CCCC(=O)O)C(=O)O	fluorescence ratio (interference)	0.9
C=CC1(C)CC(=O)C2(O)C(C)(O1)C(OC(C)=O)C(O)C1C(C)(C)CCC(O)C12C (stereo not given)	fluorescence ratio (interference)	1.1
CCCC(CCC)C(=O)OC1CC2CCC(C1)[N+]2(C)C (stereo not given)	fluorescence ratio (interference)	1.1
C#CC(N)CCC(=O)O (stereo not given)	fluorescence ratio (interference)	1
Nc1ncnc2c1ncn2[C@@H]1O[C@H](CO)[C@H](O)C1O (stereo not given in full)	fluorescence ratio (interference)	0.9
CC(=O)C(C)=O	fluorescence ratio (interference)	1
Brc1c(Br)c(Br)c2[nH]cnc2c1Br	fluorescence ratio (interference)	1
CCCCCCCCCCCCCCCCCCNC(=O)OCC(COP(=O)([O-])OCC[n+]1ccsc1)OC (stereo not given)	fluorescence ratio (interference)	1
CSc1nc(N)c2ncn([C@@H]3O[C@H](COP(=O)(O)OP(=O)(O)OP(=O)(O)O)[C@H](O)C3O)c2n1 (stereo not given in full)	fluorescence ratio (interference)	1
COc1ccccc1CNCCCCCCNCCCCCCCCNCCCCCCNCc1ccccc1OC	fluorescence ratio (interference)	1
Brc1ccc([C@H]2CN3CCSC3=N2)cc1	fluorescence ratio (interference)	0.9
O=C(O)Cc1ccc(O)c(O)c1	fluorescence ratio (interference)	1
Nc1ncnc2c1ncn2[C@@H]1O[C@H](COP(=O)(O)OP(=O)(O)OP(=O)(O)OP(=O)(O)OC[C@@H]2O[C@H](n3cnc4c(N)ncnc43)C(O)[C@@H]2O)[C@H](O)C1O (stereo not given in full)	fluorescence ratio (interference)	1
c1cnc2c(c1)ccc1cccnc12	fluorescence ratio (interference)	1
Cc1cccc(C2CN(C)CCc3c2cc(O)c(O)c3Cl)c1 (stereo not given)	fluorescence ratio (interference)	1
O=C(O)Cc1c[nH]c2ccc(O)cc12	fluorescence ratio (interference)	1
C=CC[C@H](N)C(=O)O	fluorescence ratio (interference)	1
C=CCn1c(=O)c2c(nc(-c3ccc(S(=O)(=O)O)cc3)n2C)n(C)c1=O	fluorescence ratio (interference)	1
C[C@H](O)C(=O)C1=Nc2c(nc(N)[nH]c2=O)NC1	fluorescence ratio (interference)	0.9
Cc1nc(N=Nc2ccc(C(=O)O)cc2)c(COP(=O)(O)O)c(C=O)c1O	fluorescence ratio (interference)	1
N[C@H](C(=O)O)[C@H](Cc1ccccc1)C(=O)O	fluorescence ratio (interference)	1
CC(=O)[C@H]1CCC2C3CC=C4C[C@@H](OS(=O)(=O)O)CC[C@]4(C)C3CC[C@@]21C (stereo not given in full)	fluorescence ratio (interference)	1
CC1CN(S(=O)(=O)c2cccc3cnccc23)CCN1 (stereo not given)	fluorescence ratio (interference)	0.9
CCNC(=O)[C@H]1O[C@@H](n2cnc3c(N)nc(NCCc4ccc(CCC(=O)O)cc4)nc32)C(O)[C@H]1O (stereo not given in full)	fluorescence ratio (interference)	1
O=C(O)[C@@H]1C[C@@H](C(=O)O)N1	fluorescence ratio (interference)	1
O=C(O)/C(=C/c1c(C(=O)O)[nH]c2cc(Cl)cc(Cl)c12)c1ccccc1	fluorescence ratio (interference)	1
CCc1c(C(=O)NCCc2ccc(N3CCCCC3)cc2)[nH]c2ccc(Cl)cc12	fluorescence ratio (interference)	1
OC[C@H]1NC[C@@H](O)[C@@H]1O	fluorescence ratio (interference)	1
O=c1cc(-c2ccccc2F)[nH]c2cc3c(cc12)OCO3	fluorescence ratio (interference)	0.9
Nc1ccn([C@@H]2O[C@H](CO)[C@@H](O)[C@@H]2O)c(=O)n1	fluorescence ratio (interference)	0.9
O=c1cc(-c2ccccc2)[nH]c2nc(Cl)ccc12	fluorescence ratio (interference)	1
CCCCN1CCC(n2c(=O)[nH]c3ccccc32)CC1	fluorescence ratio (interference)	1
CCOC(=O)N1CCN(/[N+]([O-])=N\Oc2ccc([N+](=O)[O-])cc2[N+](=O)[O-])CC1	fluorescence ratio (interference)	1.1
C=C1C[C@@]23CC[C@H]4[C@@](C)(CCC[C@@]4(C)C(=O)O)[C@@H]2CC[C@]1(O)C3	fluorescence ratio (interference)	1
Nc1nc(Cl)nc2c1ncn2[C@@H]1O[C@H](COP(=O)(O)OP(=O)(O)OP(=O)(O)O)[C@H](O)C1O (stereo not given in full)	fluorescence ratio (interference)	1
CC1(C)CCC(NC(=O)[C@@H](N)CCC(=O)O)CC1	fluorescence ratio (interference)	1
CCN(c1nc(N)c(C(=O)N=C(N)N)nc1Cl)C(C)C	fluorescence ratio (interference)	1
COc1ccccc1N1CCN(CCN(C(=O)c2ccc(I)cc2)c2ccccn2)CC1	fluorescence ratio (interference)	0.9

---

# experimental-details: viability loss with induced miR-34 in A549 – imaging, A549 dox-inducible miR-34, nuclei and caspase counts, primary screen (AID 1347080); also: test concentration not given here
# experimental-conditions: A549 miR-34 inducible, Hoechst nuclei count, 48 h; measured here: total cells with miR-34 induction; stronger effect = lower value
Note to self: cell count under 9000 means true, ties and anything higher get false.

compound	qualitative-label
C[C@]12CCC(=O)C=C1CC[C@@H]1[C@H]2C(O)C[C@@]2(C)[C@H]1CC[C@@]2(O)C(=O)CO (some centres undefined)	true
COc1cc2c(CCNC(C)=O)c[nH]c2cc1O	false
COC1C=CO[C@@]2(C)Oc3c(C)c(O)c4c(O)c(c5c(nc6cc(C)ccn65)c4c3C2=O)NC(=O)C(C)=CC=CC(C)C(O)C(C)C(O)C(C)C(OC(C)=O)C1C (some centres undefined)	false
Nc1nc(Nc2cccc(Cl)c2)sc1C(=O)c1ccc(F)cc1	true
CN1CC(=O)N2C(c3ccc4c(c3)OCO4)c3[nH]c4ccccc4c3C[C@@H]2C1=O (some centres undefined)	true
Clc1ccc(N2CCN(Cc3cc4ccccn4n3)CC2)cc1	false
Cc1csc2ncnc(-c3cccc4ncccc34)c12	true
CC(C)(C)NC(=O)C1CN(Cc2cccnc2)CCN1CC(O)CC(Cc1ccccc1)C(=O)NC1c2ccccc2CC1O (centres undefined)	false
CCOC(=O)Oc1c(OC)cc(C(=O)O[C@@H]2C[C@@H]3CN4CCc5c([nH]c6cc(OC)ccc56)[C@H]4C[C@@H]3[C@H](C(=O)OC)[C@H]2OC)cc1OC	true
CSCCC(NC(C)=O)C(=O)O (centres undefined)	true
CCC(C)C(=O)OC1CCC=C2C=CC(C)C(CCC3CC(O)CC(=O)O3)C21 (centres undefined)	true
CN1C2CCC1CC(OC(=O)C(O)c1ccccc1)C2 (centres undefined)	false
Cn1c(=O)c2[nH]c(-c3ccccc3)nc2n(C)c1=O	false
CC(C)(C(=O)NCC(F)(F)C(F)(F)F)C(=O)NC1C(=O)Nc2ccccc2-c2ccccc21 (centres undefined)	true
O=C(CC(=O)C(F)(F)F)c1cccs1	true
Nc1nc(Cl)nc2c1ncn2[C@@H]1O[C@H](COP(=O)(O)OP(=O)(O)OP(=O)(O)O)[C@H](O)C1O (some centres undefined)	true
Cc1oc(S(=O)(=O)N2CCCCC2)cc1NC(=O)Nc1ccccc1	true
COC(c1ccccc1)(c1ccccc1)C(Oc1nc(C)cc(C)n1)C(=O)O (centres undefined)	true
N[C@H](C(=O)O)[C@H]1C[C@@H]1C(=O)O	false
Cc1cc(C(=O)N2CCc3[nH]nc(COc4ccccc4)c3C2)c(C)o1	true
O=C(O)c1ccccc1C(=O)O	true
CCCC[C@@H](C)/C=C(C)/C=C(\C)C(=O)NC1=C[C@@](O)(/C=C/C=C/C=C/C(=O)NC2=C(O)CCC2=O)[C@@H]2O[C@@H]2C1=O	true
C[C@]12CC[C@H]3c4ccc(OC(=O)c5ccccc5)cc4CC[C@H]3[C@@H]1CCC2O (some centres undefined)	true
c1ccc(CN2CCC3(CCCc4ccccc43)CC2)cc1	true
C=C[C@@]1(C)CC(OC(=O)CSC2C[C@H]3CC[C@@H](C2)N3C)[C@]2(C)C(C)CC[C@]3(CCC(=O)[C@H]32)C(C)C1O (some centres undefined)	true
CC(=O)OCC(=O)[C@]12OC(C)(C)OC1C[C@H]1[C@@H]3CC(F)C4=CC(=O)C=C[C@]4(C)[C@]3(F)C(O)C[C@@]12C (some centres undefined)	true
Fc1ccc2[nH]c(CN3CCN(c4ccccn4)CC3)cc2c1	true
COc1ccc(C(=O)/C(Cc2cc(OC)c(OC)c(OC)c2)=C(\C(=O)O)c2ccc3c(c2)OCO3)cc1	true
Nc1ncccc1OCc1ccccc1	true
C[C@@H]1C[C@H]2[C@@H]3C[C@H](F)C4=CC(=O)C=C[C@]4(C)[C@@]3(Cl)[C@@H](O)C[C@]2(C)[C@H]1C(=O)COC(=O)C(C)(C)C	true
CCOC(=O)C(CCc1ccccc1)NC1CCCN2CCCC(C(=O)O)N2C1=O (centres undefined)	true
CC[C@@H]1Cc2cc(O)ccc2C2=C1c1ccc(O)cc1C[C@H]2CC	true
CCOC(=O)N1c2ccc(C(F)(F)F)cc2C(N(Cc2cc(C(F)(F)F)cc(C(F)(F)F)c2)C(=O)OC)CC1CC (centres undefined)	true
